# MEASUREMENT NOTES: chemical genetic growth profiling, strain panel (AID 1159580);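 further: tested at 20 µM; growth read once vehicle control cultures reached saturation at 30 °C; 1 = growth at the plate median or of vehicle wells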
# COND: S. cerevisiae deletion strains, growth OD, locus YPL241C, strain CIN2, stronger effect = lower value
The campaign covered roughly 5,500 compounds. About 2,000 (36%) were called active. Not shown: some 18% with an inconclusive outcome. The list shows a part of the results.
RESULT TYPE: normalized growth
Give bare numbers.

| MOLECULE | normalized growth |
| --- | --- |
| NCCS(=O)O | 1 |
| C[C@H]1O[C@@H](O[C@H]2[C@@H](O)C[C@H](O[C@H]3[C@@H](O)C[C@H](O[C@H]4CC[C@]5(C)C6CC[C@]7(C)[C@@H](C8=CC(=O)OC8)CC[C@]7(O)C6CC[C@@H]5C4)O[C@@H]3C)O[C@@H]2C)C[C@H](O)[C@@H]1O (stereo partly specified) | 1 |
| Cc1ccc(Cl)cc1NC(=S)N(CCC#N)/N=C\c1ccc2c(c1)OCO2 | 0.985 |
| CO[C@H]1[C@H](O)[C@@H](O[C@H]2CC[C@]3(C=O)C4CC[C@]5(C)[C@@H](C6=CC(=O)OC6)CC[C@]5(O)C4CC[C@@H]3C2)O[C@@H](C)[C@@H]1O (stereo partly specified) | 0.992 |
| CC1(C)S[C@@H]2[C@H](NC(=O)[C@@H](N)c3ccc(O)cc3)C(=O)N2[C@H]1C(=O)O | 1.01 |

Then this molecule:
Name the recorded normalized growth for C[C@H]1O[C@@H](O[C@H]2[C@@H](O)C[C@H](O[C@H]3[C@@H](O)C[C@H](O[C@H]4CC[C@]5(C)C6C[C@@H](O)[C@]7(C)[C@@H](C8=CC(=O)OC8)CC[C@]7(O)C6CC[C@@H]5C4)O[C@@H]3C)O[C@@H]2C)C[C@H](O)[C@@H]1O (stereo partly specified) .
0.998

---

# MEASUREMENT NOTES: chemical genetic growth profiling, strain panel (AID 1159580)
# COND: S. cerevisiae deletion strains, growth OD, locus YLR221C, strain rsa3, stronger effect = lower value
The whole screen tested about 5,500 compounds, of which about 2,000 (36%) were called active. Inconclusive results (about 18%) are left out. The list shows a part of the results.
RESULT TYPE: normalized growth
Answers are plain numbers.

| MOLECULE | normalized growth |
| --- | --- |
| C[C@H]1[C@H](C)CC[C@]2(C(=O)O)CC[C@]3(C)C(=CCC4[C@@]5(C)C[C@@H](O)[C@H](O)[C@@](C)(CO)C5CC[C@]43C)[C@H]12 (stereo partly specified) | 0.982 |

I have 3 molecules here; please give me normalized growth for each one.
1. NC(=O)c1ccc([N+](=O)[O-])cc1Cl
2. O=C(CCCN1CCC2(CC1)C(=O)NCN2c1ccccc1)c1ccc(F)cc1
3. NC(=O)c1cc([N+](=O)[O-])cc([N+](=O)[O-])c1

0.956
1.02
1.02

Items follow; give normalized growth for each.
1. C[C@H]1[C@H](C)CC[C@]2(C(=O)O)CC[C@]3(C)C(=CCC4[C@@]5(C)C[C@@H](O)[C@H](O)[C@@](C)(CO)C5[C@H](O)C[C@]43C)[C@H]12 (stereo partly specified)
2. CC1=C2C(O)C(=O)OC3CC4C(C)(C)C(=O)C=C[C@]4(C)C(CC1)[C@]23C (stereo partly specified)

1: 0.922; 2: 1.03

---

# MEASUREMENT NOTES: chemical genetic growth profiling, strain panel (AID 1159580);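 further: tested at 20 µM; growth read once vehicle control cultures reached saturation at 30 °C; 1 = growth at the plate median or of vehicle wells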
# COND: S. cerevisiae deletion strains, growth OD, locus YBR171W, strain sec66
The campaign covered roughly 5,500 compounds. About 2,000 (36%) were called active. About 18% were inconclusive and are not listed. No stated cut-off is given here; in the data, active means normalized growth mostly below about 0.91 (no sharp cut-off); inconclusive means no clear call, values can overlap the other calls; inactive means mostly above about 0.92. This is one part of the list.
# valid calls are active, inactive; nothing else

Use the examples below as a reference point.
| MOLECULE | ASSIGNED LABEL |
| --- | --- |
| Oc1ccc2c3c1OC1[C@@H](O)CC[C@@]4(O)[C@@H](C2)N(CC2CCC2)CC[C@]314 (stereo partly specified) | inactive |
| CO[C@H]1[C@@H](O)[C@@H](C)O[C@H](O[C@H]2CCC3(C)C4CCC5(C)[C@@H](C6=CC(=O)OC6)CC[C@]5(O)[C@@H]4CC[C@]3(O)C2)[C@@H]1O (stereo partly specified) | inactive |
| CC(=O)OC1CC[C@@]2(C)C(CCC3C2CC[C@]2(C)C(C4=CC(=O)OC4)C(OC(C)=O)CC32O)C1 (stereo partly specified) | inactive |
| C[C@@H]1CCC2[C@](C)(CO)[C@@H](O)CC[C@]2(C)[C@@]12CC[C@@](CO)(CCO)O2 (stereo partly specified) | inactive |
| C[C@H]1O[C@@H](O[C@H]2[C@@H](O)C[C@H](O[C@H]3[C@@H](O)C[C@H](O[C@H]4CC[C@]5(C)C6CC[C@]7(C)[C@@H](C8=CC(=O)OC8)CC[C@]7(O)C6CC[C@@H]5C4)O[C@@H]3C)O[C@@H]2C)C[C@H](O)[C@@H]1O (stereo partly specified) | inactive |
| OC1(c2ccc(Cl)c(C(F)(F)F)c2)CCN(CCCC(c2ccc(F)cc2)c2ccc(F)cc2)CC1 | active |
| O=C1CC2(CCCC2)CC(=O)N1CCCCN1CCN(c2ncccn2)CC1 | inactive |
| O=C(CCCN1CCC(O)(c2ccc(Cl)cc2)CC1)c1ccc(F)cc1 | inactive |

Which outcome did this test record for the molecule NCCCC(O)(P(=O)(O)O)P(=O)(O)O ?
inactive

Please state the recorded outcome for this molecule: NC(=O)c1cc([N+](=O)[O-])cc([N+](=O)[O-])c1
inactive

Record request — test call for NC[C@H]1O[C@H](OC2[C@@H](N)C[C@@H](N)[C@H](O[C@H]3O[C@H](CO)[C@@H](O)[C@H](N)[C@H]3O)[C@H]2O)[C@H](O)[C@@H](O)[C@@H]1O (stereo partly specified)
inactive

Could you kindly confirm the outcome this assay logged for NC(=O)c1ccc([N+](=O)[O-])cc1Cl ?
inactive

Please share the test call associated with C[C@]12CCC3C(CC[C@]4(O)C[C@@H](O)CC[C@]34C=O)[C@@]1(O)CCC2C1=CC(=O)OC1 (stereo partly specified) .
inactive

Tell me the assay call for CC1(C)S[C@@H]2[C@H](NC(=O)[C@@H](N)c3ccc(O)cc3)C(=O)N2[C@H]1C(=O)O please.
inactive

Outcome logged for CC(C)=CC1C(CO)C1(C)C (stereo unspecified) in this assay:
inactive

Entry COC1C(O)C(O[C@H]2CC[C@]3(C=O)C4C(CC[C@]3(O)C2)[C@@]2(O)CC[C@H](C3=CC(=O)OC3)[C@@]2(C)C[C@H]4OC(C)=O)OC(C)C1OC(C)=O (stereo partly specified) : call = ?
inactive

---

# MEASUREMENT NOTES: chemical genetic growth profiling, strain panel (AID 1159580);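 further: tested at 20 µM; growth read once vehicle control cultures reached saturation at 30 °C; 1 = growth at the plate median or of vehicle wells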
# COND: S. cerevisiae deletion strains, growth OD, locus YJL187C, strain SWE1, stronger effect = lower value
The campaign covered roughly 5,500 compounds. About 2,000 (36%) were called active. Another 18% or so got no clear call; they are omitted. This is one part of the list.
For each record, write down the corresponding normalized growth.

Worked cases, normalized growth given:
| COMPOUND | REPORTED MEASUREMENT |
| --- | --- |
| O=C(Nc1ccccc1)N1CCN(C(c2ccccc2)c2ccccc2)CC1 | 1.01 (inactive) |
| COC(=O)[C@H]1[C@H]2C[C@H]3c4[nH]c5cc(OC)ccc5c4CCN3C[C@H]2C[C@@H](OC(=O)c2cc(OC)c(OC)c(OC)c2)[C@@H]1OC | 1.01 (inactive) |
| COP(N)(=O)SC (configuration not stated) | 1.01 (inactive) |
| C[C@H]1O[C@H](O[C@H]2[C@H](O)[C@@H](O)[C@@H](O[C@H]3[C@H](O)[C@@H](O)C(O)O[C@@H]3CO)O[C@@H]2CO)[C@H](O)[C@@H](O)[C@@H]1N[C@H]1C=C(CO)[C@@H](O)[C@H](O)[C@H]1O (some centres not stated) | 0.999 (inactive) |
| CCC(=O)O[C@]1(C(=O)CCl)[C@@H](C)CC2C3CCC4=CC(=O)C=C[C@]4(C)[C@@]3(F)[C@@H](O)C[C@@]21C (some centres not stated) | 1.02 (inactive) |

Give normalized growth for all compounds that follow.
1. O=C(CCCN1CCN(c2ccccn2)CC1)c1ccc(F)cc1
2. CO[C@@H]1[C@@H](OC(N)=O)[C@@H](O)[C@H](Oc2ccc3c(O)c(NC(=O)c4ccc(O)c(CC=C(C)C)c4)c(=O)oc3c2C)OC1(C)C

0.967 (inactive)
1.03 (inactive)

---

# MEASUREMENT NOTES: chemical genetic growth profiling, strain panel (AID 1159580);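 further: tested at 20 µM; growth read once vehicle control cultures reached saturation at 30 °C; 1 = growth at the plate median or of vehicle wells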
# COND: S. cerevisiae deletion strains, growth OD, locus YDR392W, strain spt3, stronger effect = lower value
Hit rate of the full screen: of about 5,500 compounds, about 2,000 (36%) were called active. Inconclusive results (about 18%) are left out. The list shows a part of the results.
I'd appreciate it if you could supply normalized growth values for the items below.
Answers are plain numbers.

As a guide, the following entries are already answered.
| COMPOUND | normalized growth |
| --- | --- |
| CCC(=O)OCC(=O)C1(OC(=O)CC)C(C)CC2C3C(Cl)CC4=CC(=O)C=CC4(C)C3C(O)CC21C (centres undefined) | 1.08 |
| NC(=O)c1cc([N+](=O)[O-])cc([N+](=O)[O-])c1 | 0.633 |
| CC1(C)[C@@H]2CC[C@@]1(C)C(=O)C2 | 0.902 |
| CO[C@@H]1[C@@H](OC(N)=O)[C@@H](O)[C@H](Oc2ccc3c(O)c(NC(=O)c4ccc(O)c(CC=C(C)C)c4)c(=O)oc3c2C)OC1(C)C | 0.999 |
| COc1cc(C(=O)N2CCOCC2)cc(OC)c1OC | 1.02 |
| NCCCN | 0.964 |
| CCC(=O)OCC(=O)C1(OC(=O)CC)C(C)CC2C3CCC4=CC(=O)C=CC4(C)C3(Cl)C(O)CC21C (centres undefined) | 1.03 |
| COC(=O)CC1C(C)(C)C(OC(C)=O)[C@@H]2[C@@H](OC(C)=O)[C@]34O[C@@]2(O)[C@]1(C)C3CC[C@]1(C)C4=CC(=O)O[C@H]1c1ccoc1 (some centres undefined) | 1.07 |

Please turn your attention to the following entry.
Which normalized growth is listed for Cc1c(C(N)=O)cc([N+](=O)[O-])cc1[N+](=O)[O-] ?
1
